B1: tRNA (parent)
chain: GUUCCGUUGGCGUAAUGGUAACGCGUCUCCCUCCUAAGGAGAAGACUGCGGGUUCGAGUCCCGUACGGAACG

variants of: B1; test: yeast fitness relative to wild type (ratio to wild type); higher = fitter; tRNA-Arg(CCU), competitive growth, 37 C, YPD
Fewer inactive variants are shown than the library holds.
measured metric: yeast fitness

>>> observed_value("C5G U32G")
0.776
>>> observed_value("U3C C55A")
0.687
>>> observed_value("U19C C29G G44C")
0.505
>>> observed_value("C61U G67U")
0.86
>>> observed_value("A15C G68C")
0.633
>>> observed_value("U2C C27G")
0.748
>>> observed_value("U7G C30A A65C")
1.06
>>> observed_value("A20G U28G")
0.86
>>> observed_value("A43U C46A A69C")
0.734
>>> observed_value("G6C A45C G56A")
0.568
>>> observed_value("C4A C22A A69U")
0.528
>>> observed_value("U7C C46A G51A U53A C62A G68A")
0.579
>>> observed_value("A36U A40U")
0.591
>>> observed_value("A43G U59C A70C")
0.658
>>> observed_value("C31U A36C U53C")
0.569
>>> observed_value("C11A G63A")
0.681
>>> observed_value("C34U A65U")
0.574
>>> observed_value("U2C A14U")
0.764
>>> observed_value("C24U C49U C55G A70U")
0.559
>>> observed_value("G12A A65G")
0.98
>>> observed_value("U8A A65C A70U")
0.525
>>> observed_value("C5U G17A A40U A42C C49A")
0.684
>>> observed_value("U28A A40U")
0.984
>>> observed_value("A15C U19C C62A")
0.536
>>> observed_value("C27U G50A")
0.991
>>> observed_value("C27G G41A")
1.03
>>> observed_value("C4A U7A A20U C27G C29U C62G")
0.549
>>> observed_value("C27U A43C C49U")
0.757
>>> observed_value("A43U G58C")
0.892
>>> observed_value("U3A A65U")
0.704
>>> observed_value("U8A A40C")
0.774
>>> observed_value("C31A U47A")
0.673
>>> observed_value("U2G A57G")
0.82
>>> observed_value("U3C C46G A69C")
0.625
>>> observed_value("C31U A43G")
1.06
>>> observed_value("U32C A37G C55A A65U G68C")
0.575
>>> observed_value("U26C G48C")
0.86
>>> observed_value("C34U A37U G58C C62A")
0.736
>>> observed_value("C11G G58A")
0.722
>>> observed_value("C60U C66U")
0.711
>>> observed_value("U32C G48A")
0.76
>>> observed_value("C27A C34U A42C U53G C66U")
0.536
>>> observed_value("C27A U64A")
0.748
>>> observed_value("G12A G63C")
0.704
>>> observed_value("U7C A36U G50C C60A")
0.57
>>> observed_value("U7G G25A C49G")
0.542
>>> observed_value("G41C A42C")
0.565

Reference source for all entries: the RNAGym collection of RNA variant scans (doi:10.1126/science.aae0568)
